- target_under_test: T1, YU-2 gp120 (HIV-1 (strain YU-2), UniProt P35961 32-498)
- T1 construct: domain: gp120; also called gp120WT; intact YU-2 gp120
- experiment_notes: SPR, IgG over immobilised YU-2 gp120, 1:1 fit, apparent constant
Below, each entry is listed with its recorded Ka.
test_readout: Ka

10-410 (antibody, V domains shown) VH: QVQLQESGPGLVKPPETLSLTCSVSGASVNDAYWSWIRQSPGKRPEWVGYVHHSGDTNYNPSLKRRVTFSLDTAKNEVSLKLVALTAADSAVYFCARALHGKRIYGIVALGELFTYFYMDVWGKGTTVTVSS VL: SFVSVAPGQTARITCGEESLGSRSVIWYQQRPGQAPSLIIYNNNDRPSGIPERFSGSPGSTFGTTATLTITSVEAGDEADYYCHIWDSRRPTNWVFGEGTTLTVL ... 2.1e+07 M⁻¹
10-847 (antibody, V domains shown) VH: QVQLQESGPGLVKPSETLSVTCSVSGDSMNNYYWTWIRQSPGKGLEWIGYISDRASATYNPSLNSRVVISRDTSKNQLSLKLNSVTPADTAVYYCATARRGQRIYGVVSFGEFFYYYSMDVWGKGTTVTVSS VL: SYVRPLSVALGETASISCGRQALGSRAVQWYQHRPGQAPILLIYNNQDRPSGIPERFSGTPDINFGTRATLTISGVEAGDEADYYCHMWDSRSGFSWSFGGATRLTVL ... 1.1e+08 M⁻¹
10-1074 (antibody, V domains shown) VH: QVQLQESGPGLVKPSETLSVTCSVSGDSMNNYYWTWIRQSPGKGLEWIGYISDRESATYNPSLNSRVVISRDTSKNQLSLKLNSVTPADTAVYYCATARRGQRIYGVVSFGEFFYYYSMDVWGKGTTVTVSS VL: SYVRPLSVALGETARISCGRQALGSRAVQWYQHRPGQAPILLIYNNQDRPSGIPERFSGTPDINFGTRATLTISGVEAGDEADYYCHMWDSRSGFSWSFGGATRLTVL ... 1.1e+08 M⁻¹
